assay: Pharmacokinetic study in sham and myocardial ischemia model rats after a single oral dose of QSKL (UHPLC-psMS/MS of plasma, non-compartmental analysis); details: male, Sprague-Dawley, rat, plasma, po, 8 g/kg, t1/2, sham group (SG) rats, oral administration of QSKL, plasma, mean ± SD, n = 6
property: half-life (h)
// note: answer is a bare numeric in h

I have this compound here, Cc1coc2c1C(=O)C(=O)c1c-2ccc2c1CCCC2(C)C , and I need its recorded half-life.
13.8

For the compound COC(=O)C1=CO[C@@H](O[C@@H]2O[C@H](CO)[C@@H](O)[C@H](O)[C@H]2O)[C@@H]2[C@H](C)O[C@@H](O)C[C@H]12 [morroniside] , what half-life is on record?
15.8

Reported half-life, compound O=C(/C=C/c1ccc(O)cc1)c1ccc(O)cc1O : ____
4.37

Can you share its half-life? I mean this compound: COc1ccc(-c2coc3cc(O)ccc3c2=O)cc1
4.7

// half-life lookup, key: CC1(C)[C@@H](O[C@H]2O[C@H](C(=O)O)[C@@H](O)[C@H](O)[C@H]2O[C@@H]2O[C@H](C(=O)O)[C@@H](O)[C@H](O)[C@H]2O)CC[C@]2(C)[C@H]3C(=O)C=C4[C@@H]5C[C@@](C)(C(=O)O)CC[C@]5(C)CC[C@@]4(C)[C@]3(C)CC[C@@H]12
43.2

// below: half-life requested for another compound
Item COc1ccc(-c2coc3cc(O)ccc3c2=O)cc1O has what recorded half-life?
38.2
